tested on: E. coli (Ec); experiment: Broth microdilution minimum inhibitory concentration (MIC), CLSI; assay type: cell-based; settings: Escherichia coli, growth medium with sodium bicarbonate, read-out: E. coli + bicarb MIC
Measured MIC, listed per entry for reference.
QUANTITY: MIC

INSERT INTO results (compound, target_or_system, result) VALUES
  ('CC(COc1ccc(-n2ccc(NC(=O)N3CCN(C(=O)C(C)(C)N)CC3)nc2=O)cc1)N1CC2(CC(N)C2)C1 (stereo not shown)', 'E. coli (Ec)', '< 8 µg/mL'),
  ('CC(Cc1ccc(-n2ccc(NC(=O)N3CCN(C(=O)[C@@H]4CCCN4)CC3)nc2=O)cc1)N1C[C@@H]2[C@@H](CN)[C@@H]2C1 (stereo partly shown)', 'E. coli (Ec)', '< 8 µg/mL'),
  ('CC(Cc1ccc(-n2ccc(NC(=O)N3CCN(C(=O)C(N)CCCN)CC3)nc2=O)cc1)N1C[C@@H]2[C@@H](CN)[C@@H]2C1 (stereo partly shown)', 'E. coli (Ec)', '< 8 µg/mL'),
  ('NC[C@@H]1CCN(C(=O)Nc2ccn(-c3ccc(CN4C[C@@H]5[C@@H](N)[C@@H]5C4)cc3)c(=O)n2)C1', 'E. coli (Ec)', '> 32 µg/mL'),
  ('CN(Cc1ccc(-n2ccc(NC(=O)N3CCN(C(=O)C(C)(C)N)CC3)nc2=O)cc1)C12CC(CN)(C1)C2', 'E. coli (Ec)', '< 8 µg/mL'),
  ('CC(C)[C@@H](N)C(=O)N1CCN(C(=O)Nc2ccn(-c3ccc(CC(C)N4C[C@@H]5[C@@H](CN)[C@@H]5C4)cc3)c(=O)n2)CC1 (stereo partly shown)', 'E. coli (Ec)', '< 8 µg/mL'),
  ('CC(C)(N)C(=O)N1CCN(C(=O)Nc2ccn(-c3ccc(CCNC4CC5(CC(N)C5)C4)cc3)c(=O)n2)CC1 (stereo not shown)', 'E. coli (Ec)', '< 8 µg/mL'),
  ('CC(C)(N)C(=O)N1CCN(C(=O)Nc2ccn(-c3ccc(C[C@H](N)C(=O)N4CC5CC5(CN)C4)cc3)c(=O)n2)CC1 (stereo partly shown)', 'E. coli (Ec)', '> 32 µg/mL'),
  ('CC(Cc1ccc(-n2ccc(NC(=O)N3CCN(C(=O)C(C)(C)N)CC3)nc2=O)cc1)N1CCC2(CC1)CC2CN (stereo not shown)', 'E. coli (Ec)', '< 8 µg/mL'),
  ('NCCC1CN(C(=O)Nc2ccn(-c3ccc(CN4C[C@@H]5[C@@H](N)[C@@H]5C4)cc3)c(=O)n2)C1', 'E. coli (Ec)', '8 to 32 µg/mL'),
  ('CC(C)(N)C(=O)N1CCN(C(=O)Nc2ccn(-c3ccc(CCN4C[C@@H]5[C@H](C4)[C@H]5C(N)CN)cc3)c(=O)n2)CC1 (stereo partly shown)', 'E. coli (Ec)', '< 8 µg/mL'),
  ('CC(Cc1ccc(-n2ccc(NC(=O)N3CCN(C(=O)C(C)(C)N)CC3)nc2=O)cc1)N(C)C12CC(CN)(C1)C2 (stereo not shown)', 'E. coli (Ec)', '< 8 µg/mL'),
  ('CC(C)(N)C(=O)N1CCN(C(=O)Nc2ccn(-c3ccc(CCCN4C[C@@H]5[C@@H](CN)[C@@H]5C4)cc3)c(=O)n2)CC1', 'E. coli (Ec)', '< 8 µg/mL');
